Assay type: in vivo, Male Wistar-Hannover rats
experimental-context: rats, dose 10 mg/kg, plasma
reported-property: AUC0~∞
Quick note: unit goes after the number.

Reference set, count: 3
* [2H][C@](NC(=O)C(F)(F)F)(C(=O)N1C[C@H]2[C@@H]([C@H]1C(=O)N[C@H](C#N)C[C@@H]1CCNC1=O)C2(C)C)C(C)(C)C | 2294 ng·h/mL
* [2H]C([2H])([2H])C(C(NC(=O)C(F)(F)F)C(=O)N1C[C@H]2[C@@H]([C@H]1C(=O)N[C@H](C#N)C[C@@H]1CCNC1=O)C2(C)C)(C([2H])([2H])[2H])C([2H])([2H])[2H] (stereo partly shown) | 2011 ng·h/mL
* [2H]C1([2H])C[C@@H](C[C@@H](C#N)NC(=O)[C@@H]2[C@@H]3[C@H](CN2C(=O)[C@@H](NC(=O)C(F)(F)F)C(C)(C)C)C3(C)C)C(=O)N1 | 1974 ng·h/mL

Consider the additional compound presented here.
Enquiry: Indicate its recorded AUC0~∞; the compound in question is `[2H][C@@](C#N)(C[C@@H]1CCNC1=O)NC(=O)[C@@H]1[C@@H]2[C@H](CN1C(=O)[C@@H](NC(=O)C(F)(F)F)C(C)(C)C)C2(C)C`
Return: 2325 ng·h/mL

====

Format: in vivo, Male Wistar-Hannover rats
experimental-context: rats, dose 10 mg/kg, plasma
reported-property: T1/2
Answer format reminder: number followed by unit.

Recorded T1/2, per entry:
- [2H]C1([2H])C[C@@H](C[C@@H](C#N)NC(=O)[C@@H]2[C@@H]3[C@H](CN2C(=O)[C@@H](NC(=O)C(F)(F)F)C(C)(C)C)C3(C)C)C(=O)N1 [Compound 1]: 3.5 h
- [2H]C([2H])([2H])C(C(NC(=O)C(F)(F)F)C(=O)N1C[C@H]2[C@@H]([C@H]1C(=O)N[C@H](C#N)C[C@@H]1CCNC1=O)C2(C)C)(C([2H])([2H])[2H])C([2H])([2H])[2H] (stereo partly shown) [Compound 32]: 3.5 h
- [2H][C@@](C#N)(C[C@@H]1CCNC1=O)NC(=O)[C@@H]1[C@@H]2[C@H](CN1C(=O)[C@@H](NC(=O)C(F)(F)F)C(C)(C)C)C2(C)C [Compound 2]: 4.2 h

Enquiry: Give me measured T1/2, please, for this molecule: [2H][C@](NC(=O)C(F)(F)F)(C(=O)N1C[C@H]2[C@@H]([C@H]1C(=O)N[C@H](C#N)C[C@@H]1CCNC1=O)C2(C)C)C(C)(C)C [Compound 16]
Return: 4 h

====

Format: in vivo, Male Wistar-Hannover rats
experimental-context: rats, dose 10 mg/kg, plasma
reported-property: Tmax
Number plus unit, in that order.

Examples with their reported Tmax follow.
- [2H]C([2H])([2H])C(C(NC(=O)C(F)(F)F)C(=O)N1C[C@H]2[C@@H]([C@H]1C(=O)N[C@H](C#N)C[C@@H]1CCNC1=O)C2(C)C)(C([2H])([2H])[2H])C([2H])([2H])[2H] (stereo partly shown): 2 h
- [2H][C@](NC(=O)C(F)(F)F)(C(=O)N1C[C@H]2[C@@H]([C@H]1C(=O)N[C@H](C#N)C[C@@H]1CCNC1=O)C2(C)C)C(C)(C)C: 2 h
- [2H][C@@](C#N)(C[C@@H]1CCNC1=O)NC(=O)[C@@H]1[C@@H]2[C@H](CN1C(=O)[C@@H](NC(=O)C(F)(F)F)C(C)(C)C)C2(C)C: 2 h

Enquiry: Report Tmax, nothing else, for this compound: `[2H]C1([2H])C[C@@H](C[C@@H](C#N)NC(=O)[C@@H]2[C@@H]3[C@H](CN2C(=O)[C@@H](NC(=O)C(F)(F)F)C(C)(C)C)C3(C)C)C(=O)N1`
Return: 2 h

====

Test system: SARS-CoV-2 virus
experiment-summary: In vitro anti-SARS-CoV-2 virus assay (Vero E6 cells, viral RNA by PCR)
Format: cell-based
experimental-context: Vero E6 cells, compound final concentration 100 nM, PCR of supernatant viral RNA after 2-3 days
Parameter: Inhibition rate (virus replication). Scope: all listed entries.
Please reply with the bare figure in % and do not write the unit itself.

• [2H][C@](NC(=O)C(F)(F)F)(C(=O)N1C[C@H]2[C@@H]([C@H]1C(=O)N[C@H](C#N)C[C@@H]1CCNC1=O)C2(C)C)C(C)(C)C = 72.6

Enquiry: Quote Inhibition rate (virus replication) with test system SARS-CoV-2 virus for [2H]C([2H])([2H])C(C(NC(=O)C(F)(F)F)C(=O)N1C[C@H]2[C@@H]([C@H]1C(=O)N[C@H](C#N)C[C@@H]1CCNC1=O)C2(C)C)(C([2H])([2H])[2H])C([2H])([2H])[2H] (stereo partly shown)
Return: 70.4

Enquiry: Look up and report Inhibition rate (virus replication), with SARS-CoV-2 virus as system, for `[2H]C1([2H])C[C@@H](C[C@@H](C#N)NC(=O)[C@@H]2[C@@H]3[C@H](CN2C(=O)[C@@H](NC(=O)C(F)(F)F)C(C)(C)C)C3(C)C)C(=O)N1`
Return: 71.5

Enquiry: # lookup: SARS-CoV-2 virus Inhibition rate (virus replication), key = `[2H][C@@](C#N)(C[C@@H]1CCNC1=O)NC(=O)[C@@H]1[C@@H]2[C@H](CN1C(=O)[C@@H](NC(=O)C(F)(F)F)C(C)(C)C)C2(C)C`
Return: 73.5
